Measured growth inhibition of individual entries
assay: NCI Yeast Anticancer Drug Screen. Data for the mlh1 rad18 strain (AID 175); conditions: S. cerevisiae mlh1 rad18 strain growth inhibition; at 50.0 µM; active compounds read high
This is part of a sample that, as a whole, favours compounds with a hit. Of some 79,000 tested, about 15% had one in any assay.
Express the result in % but write the number alone.

Previously resolved entries follow.
# molecule, unit_text, growth inhibition
rows = [
    ("Cc1cccc(-c2csc(N)n2)c1", "%", 65.2),
    ("O=C1OC(=O)C2C(c3ccccc3)=C(c3ccccc3)C(c3ccccc3)=C(c3ccccc3)C12 (stereo not drawn)", "%", 62),
]

Exercise: Find the measured growth inhibition of N=c1ccc2c(c1)[nH]c1c3ccccc3[nH]c3cccc2c31 and report it.
Key: 87

Exercise: Find the measured growth inhibition of C=C(C)CCC(=C)C and report it.
Key: 42

Exercise: Find the measured growth inhibition of C(=C/c1ccnc2ccccc12)/c1cccs1 and report it.
Key: 98.2

Exercise: Find the measured growth inhibition of Cc1ccc(N=Nc2c(-c3ccccc3)nn(C(=S)S)c2-c2ccccc2)cc1 and report it.
Key: 61.8

Exercise: Find the measured growth inhibition of CC(C)N1C(=O)C=CC1=O and report it.
Key: 54

* * *

Assay: NCI Yeast Anticancer Drug Screen. Data for the rad50 strain (AID 155);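 note: 0% = growth of vehicle-only cultures of the same strain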
Conditions: S. cerevisiae rad50 strain growth inhibition; at 5.0 µM (retest, dose inferred, filed as 0.5); active compounds read high
Procedure: Growth inhibition of yeast strains with defined genetic alterations is measured as a screen for potential anti-cancer activity. Selected strains with alterations in DNA damage repair or cell cycle control were exposed to compounds and growth inhibition was measured relative to vehicle treated controls. The strain used in this assay is rad50
This is part of a sample that, as a whole, favours compounds with a hit. Of some 79,000 tested, about 15% had one in any assay.
Label Met when growth inhibition is at or above 10%; otherwise label Not met.

# compound, group
data = [
    ("Cc1ccc(N=Nc2ncccc2O)cc1C", "Not met"),
    ("CC(C)OP(=O)(OC(C)C)/C(=N/Nc1ccc([N+](=O)[O-])cc1)NNC(=O)c1ccccc1", "Not met"),
    ("COc1ccc(I)c(C=NC2CCCCC2)c1C", "Met"),
    ("O=S(=O)(Nc1ccccc1)c1ccccc1C(O)(c1ccccc1)c1ccccc1", "Not met"),
    ("COc1cccc(/C=C2\\CCC(CN(C)C)C2=O)c1 (stereo unspecified)", "Met"),
]

Here is another compound to look at.
Exercise: Evaluate NCCOB(c1ccccc1)c1ccccc1 : growth inhibition at minimum 10%?
Key: Met

* * *

Experiment: NCI Yeast Anticancer Drug Screen. Data for the mec2-1 strain (AID 157)
Settings: S. cerevisiae mec2-1 strain, at 50.0 µM (retest, dose inferred, filed as 5.0), active compounds read high
Procedure: Growth inhibition of yeast strains with defined genetic alterations is measured as a screen for potential anti-cancer activity. Selected strains with alterations in DNA damage repair or cell cycle control were exposed to compounds and growth inhibition was measured relative to vehicle treated controls. The strain used in this assay is mec2-1
Compounds without any hit were thinned out: in the full panel of roughly 79,000, 15% have a hit.
Label label 1 when growth inhibition is at or above 20%; otherwise label label 0.

Example entries begin here.
# compound, group
measured = [
    ("CN=c1sc2c(n1C)C(=O)c1ccccc1C2=O", "label 1"),
    ("Cc1ccc2c(c1)NC(=O)C(N=[N+]=[N-])(c1ccccc1)C2=O (centres undefined)", "label 1"),
    ("CN(C)C(=S)SN(C)C(=O)Nc1ccccc1", "label 1"),
    ("CCOC(=O)/C(=C\\N1C(=O)/C(=C\\C(C)=C\\c2ccccc2)SC1=S)C(=O)c1ccccc1", "label 1"),
]

Exercise: Evaluate O=C(N/C(=C\c1ccc(Cl)cc1)c1nc2ccccc2s1)c1ccccc1 : growth inhibition at minimum 20%?
Key: label 1

Exercise: Evaluate COC(=O)C1(COCc2ccccc2)CCCC2OC21 (centres undefined) : growth inhibition at minimum 20%?
Key: label 0

Exercise: Evaluate COC(=O)c1c(C)cccc1C(=O)c1c(C)cc(C)cc1C : growth inhibition at minimum 20%?
Key: label 1

Exercise: Evaluate Cc1cc(S(=O)(=O)Nc2n[nH]c(-c3ccccn3)n2)c(S)cc1Cl : growth inhibition at minimum 20%?
Key: label 1

* * *

assay: NCI Yeast Anticancer Drug Screen. Data for the sgs1 mgt1 strain (AID 161);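 note: 0% = growth of cultures given vehicle only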; settings: S. cerevisiae sgs1 mgt1 strain, at 50.0 µM (retest, dose inferred, filed as 5.0), active compounds read high
About 79,000 compounds went through this panel and 15% of them were active in at least one assay; those are over-represented in the sample as a whole.
endpoint: growth inhibition (%)
Express the result in % but write the number alone.

Previously resolved entries follow.
# compound, growth inhibition, %
data = [
    ("Nc1ncnc2nn(C3OC(CO)C(O)C3O)nc12 (stereo not drawn)", 6),
    ("O=[N+]([O-])c1ccc(S(=O)(=O)Cc2ccccc2)c2nonc12", 99),
    ("CCCCOC(c1ccccc1)N1CCCCC1 (stereo not drawn)", 6),
    ("COc1ccc2c(c1)c1c(C)c3cnccc3c(C)c1n2CCCN", 13),
    ("O=S(=O)(OCC#CCOS(=O)(=O)c1ccc(Cl)c(Cl)c1)c1ccc(Cl)c(Cl)c1", 63),
]

Exercise: Find the measured growth inhibition of CCCCCCCCN(CCCCCCCC)CC(O)c1cc(-c2ccc(OC)cc2)nc2cc(Cl)ccc12 (stereo not drawn) and report it.
Key: 85

Exercise: Find the measured growth inhibition of COc1ccc(C2C3=C(CCCC3=O)Oc3cc4c(cc32)OCO4)c(OC)c1 (stereo not drawn) and report it.
Key: 92

Exercise: Find the measured growth inhibition of N#CC(=C1C=CC(=NOC(=O)Nc2ccccc2)C=C1)c1ccccc1 and report it.
Key: 99

Exercise: Find the measured growth inhibition of CC/S(=N\S(=O)(=O)c1ccc(C)cc1)c1cccc[n+]1[O-] (stereo not drawn) and report it.
Key: 98

Exercise: Find the measured growth inhibition of NCC(=O)N/N=C/c1ccc([N+](=O)[O-])o1 and report it.
Key: 15

Exercise: Find the measured growth inhibition of NCC(O)CSc1ccc(Cl)c(Cl)c1 (stereo not drawn) and report it.
Key: 16

Exercise: Find the measured growth inhibition of Cc1ccc(S(=O)(=O)NNC(C[N+](=O)[O-])c2ccccc2)cc1 (stereo not drawn) and report it.
Key: 99

Exercise: Find the measured growth inhibition of OC(c1cc(-c2ccccc2)nc2c(Cl)cc(Cl)cc12)C1CCCCN1 (stereo not drawn) and report it.
Key: 98

Exercise: Find the measured growth inhibition of O=C1c2ccccc2/C=C\C(c2ccccc2)=N/N1c1ccccc1Cl and report it.
Key: 81

Exercise: Find the measured growth inhibition of O=C1C(=O)c2cc(Cl)ccc2-c2ccc(Cl)cc21 and report it.
Key: 95

Exercise: Find the measured growth inhibition of Fc1ccc(C2SCc3nc4ccccc4n32)cc1Cl (stereo not drawn) and report it.
Key: 90

Exercise: Find the measured growth inhibition of COc1cc2c(cc1O)-c1c(cnn1-c1ccc([N+](=O)[O-])cc1)CCC2 and report it.
Key: 38

Exercise: Find the measured growth inhibition of C=C1CC2(OC1=O)C(=O)N(C)c1ccccc12 (stereo not drawn) and report it.
Key: 67

Exercise: Find the measured growth inhibition of CCC[CH2][Sn]([CH2]CCC)([O]C(=O)c1cc(F)cc(F)c1)[O][Sn]([CH2]CCC)([CH2]CCC)[O]C(=O)c1cc(F)cc(F)c1 and report it.
Key: 95

Exercise: Find the measured growth inhibition of C=CCCCCCCCCC(=O)OCC=C and report it.
Key: 9

Exercise: Find the measured growth inhibition of O=C(c1ccccc1)c1ccc2cccc(O)c2n1 and report it.
Key: 55

Exercise: Find the measured growth inhibition of Cc1c(O)/c(=C\O)c2nc3c(=O)ccc(C(=O)NCCN(C)C)c3[nH]c2c1=O and report it.
Key: 97

Exercise: Find the measured growth inhibition of CC(C)=NOCCOC(=O)C(c1ccccc1)c1ccccc1 and report it.
Key: -2

* * *

assay: NCI Yeast Anticancer Drug Screen. Data for the mlh1 rad18 strain (AID 175); settings: S. cerevisiae mlh1 rad18 strain growth inhibition; at 50.0 µM (retest, dose inferred, filed as 5.0); active compounds read high
This is part of a sample that, as a whole, favours compounds with a hit. Of some 79,000 tested, about 15% had one in any assay.
endpoint: growth inhibition (%)
Express the result in % but write the number alone.

Exercise: Find the measured growth inhibition of NNc1cc(C(F)(F)F)nc2ccccc12 and report it.
Key: -95

Exercise: Find the measured growth inhibition of CCCCCCCCN(CCCCCCCC)CC(O)c1cc(-c2ccc(OC)cc2)nc2cc(Cl)ccc12 (configuration not stated) and report it.
Key: 84

Exercise: Find the measured growth inhibition of Nc1ccccc1[S][Sn]([c]1ccccc1)([c]1ccccc1)[c]1ccccc1 and report it.
Key: 99

Exercise: Find the measured growth inhibition of Cc1[nH]c2ccccc2c1C(C)CC(O)c1ccccc1 (configuration not stated) and report it.
Key: 88

Exercise: Find the measured growth inhibition of Nc1ncnc2nc(SCCO)[nH]c12 and report it.
Key: -3

Exercise: Find the measured growth inhibition of CC(C)(C)N1C(=O)C(Cl)(C#N)C1c1ccccc1 (configuration not stated) and report it.
Key: 26

Exercise: Find the measured growth inhibition of CC(C)(C)c1ccc(-c2nc3ccccc3c(=O)o2)cc1 and report it.
Key: 55

Exercise: Find the measured growth inhibition of c1ccc2c(CCc3ccncc3)cccc2c1 and report it.
Key: 71

Exercise: Find the measured growth inhibition of COc1cc(CNc2nc3ccccc3nc2-c2cccs2)cc(OC)c1OC and report it.
Key: 17

Exercise: Find the measured growth inhibition of C/C(=N\NC(=S)NNC(=S)N1CCCc2ccccc21)c1ccccn1 and report it.
Key: 95

Exercise: Find the measured growth inhibition of CC(C)c1ccc2c(c1)CCC1C(C)(CN)CCCC21C (configuration not stated) and report it.
Key: 100

Exercise: Find the measured growth inhibition of Oc1[nH]c2ccccc2c1N=NC(=S)N1CCCCCC1 and report it.
Key: 98
